Biological target: GST-tag full length MDM2 (Homo sapiens (Human))
Sequence (Q00987 whole entry): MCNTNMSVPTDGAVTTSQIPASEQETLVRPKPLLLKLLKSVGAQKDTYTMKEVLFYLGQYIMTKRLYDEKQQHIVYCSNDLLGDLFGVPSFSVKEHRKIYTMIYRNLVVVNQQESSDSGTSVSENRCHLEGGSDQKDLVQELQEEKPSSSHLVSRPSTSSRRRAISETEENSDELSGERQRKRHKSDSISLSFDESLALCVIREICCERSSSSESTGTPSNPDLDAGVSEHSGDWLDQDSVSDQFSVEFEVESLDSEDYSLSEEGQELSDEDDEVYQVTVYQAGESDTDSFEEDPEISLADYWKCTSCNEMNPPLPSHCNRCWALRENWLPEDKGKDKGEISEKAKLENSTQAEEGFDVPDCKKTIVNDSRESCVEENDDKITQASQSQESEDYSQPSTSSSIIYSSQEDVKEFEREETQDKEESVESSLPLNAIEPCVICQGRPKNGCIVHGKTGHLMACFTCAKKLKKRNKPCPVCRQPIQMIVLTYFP
Assay: MDM2-p53 TR-FRET Binding Assays
Settings: MDM2 / biotin p53 peptide
MEASURED_ENDPOINT: IC50

- COc1cc(C(N)=O)ccc1NC(=O)[C@@H]1N[C@@H](C[C@H](C)C(F)(F)F)[C@@]2(C(=O)Nc3cc(Cl)ccc32)[C@H]1c1cccc(Cl)c1F (racemic) [Example 12]: ≤ 7.2 nM
- COc1cc(C(=O)O)ccc1NC(=O)[C@@H]1N[C@@H](C[C@H](C)C(F)(F)F)[C@@]2(C(=O)Nc3cc(Cl)ccc32)[C@H]1c1cccc(Cl)c1F (racemic) [Example 10]: ≤ 7.2 nM
- COc1cc(C(=O)O)ccc1NC(=O)[C@@H]1N[C@@H](CC2(CF)CC2)C2(C(=O)Nc3cc(Cl)ccc32)[C@H]1c1cccc(Cl)c1F (stereo partly shown) [Example 74]: ≤ 7.2 nM
- COc1cc(C(N)=O)ccc1NC(=O)[C@@H]1N[C@@H](CC2(CF)CC2)C2(C(=O)Nc3cc(Cl)ccc32)[C@H]1c1cccc(Cl)c1F (stereo partly shown) [Example 75]: ≤ 7.2 nM
- COc1cc(C(N)=O)ccc1NC(=O)[C@@H]1N[C@@H](C[C@@H](C)C(F)(F)F)[C@@]2(C(=O)Nc3cc(Cl)ccc32)[C@H]1c1cccc(Cl)c1F [Example 28]: ≤ 3.6 nM
- COc1cc(C(=O)O)ccc1NC(=O)[C@@H]1N[C@@H](C[C@@H](C)C(F)(F)F)[C@@]2(C(=O)Nc3cc(Cl)ccc32)[C@H]1c1cccc(Cl)c1F (racemic) [Example 11]: ≤ 7.2 nM
- COc1cc(C(N)=O)ccc1NC(=O)[C@@H]1N[C@@H](C[C@H](C)C(F)(F)F)[C@@]2(C(=O)Nc3cc(Cl)ccc32)[C@H]1c1cccc(Cl)c1F [Example 66]: ≤ 3.6 nM
